Target: furin, P09958;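 note: purified furin at 1:10 enzyme:substrate in 50 mM HEPES pH 7.5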
Sequence (P09958 whole entry): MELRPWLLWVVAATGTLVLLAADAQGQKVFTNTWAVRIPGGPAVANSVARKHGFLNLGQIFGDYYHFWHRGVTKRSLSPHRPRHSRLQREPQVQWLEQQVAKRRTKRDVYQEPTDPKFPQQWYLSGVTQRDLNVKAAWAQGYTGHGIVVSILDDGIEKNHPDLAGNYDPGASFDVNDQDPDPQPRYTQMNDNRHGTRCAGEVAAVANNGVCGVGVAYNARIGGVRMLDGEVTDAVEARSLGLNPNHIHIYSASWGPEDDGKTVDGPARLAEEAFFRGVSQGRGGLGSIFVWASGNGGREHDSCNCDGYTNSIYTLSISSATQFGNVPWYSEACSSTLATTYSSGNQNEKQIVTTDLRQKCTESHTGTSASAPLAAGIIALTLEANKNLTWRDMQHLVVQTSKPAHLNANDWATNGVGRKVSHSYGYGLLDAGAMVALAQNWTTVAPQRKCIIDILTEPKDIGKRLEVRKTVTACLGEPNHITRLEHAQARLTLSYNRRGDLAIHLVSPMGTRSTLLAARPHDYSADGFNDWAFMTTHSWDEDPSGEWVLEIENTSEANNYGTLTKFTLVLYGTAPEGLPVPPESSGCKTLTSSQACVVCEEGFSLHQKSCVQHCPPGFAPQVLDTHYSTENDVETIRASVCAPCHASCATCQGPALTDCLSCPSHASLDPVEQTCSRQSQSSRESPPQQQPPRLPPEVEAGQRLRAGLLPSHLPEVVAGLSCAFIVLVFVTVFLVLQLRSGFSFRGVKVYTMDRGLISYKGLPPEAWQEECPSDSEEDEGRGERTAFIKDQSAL
Assay: furin cleavage Z-score vs untreated control; higher = more cleavage, active = 3.5 or more, inactive = 1 or less, 8 variable residues between constant flanks
Conditions: 30 min
This is one part of the list. How many sequences the whole screen found active is unknown.
reported_metric: furin cleavage Z-score
Answer with the value's number alone.

Worked set:
Query: Any idea what furin cleavage Z-score was measured for CAKSVRKRRVAGNASASA [FS-603] ?
Response: 9.56

Query: Any idea what furin cleavage Z-score was measured for CAGYELQGREAGNASASA [FS-534] ?
Response: -1.02

Query: Any idea what furin cleavage Z-score was measured for CAYHGRIPREAGNASASA [FS-1619] ?
Response: 4.92

Others:
Query: Any idea what furin cleavage Z-score was measured for CAEINRVAACAGNASASA [HC1611] ?
Response: -0.701
